The following sequences are shown together with reported self-splicing fitness (ln) values.
- Measurement Notes: self-splicing fitness, log relative to wild type (ln ratio); higher = more splicing; Tetrahymena group I intron in knt gene, E. coli kanamycin selection, DiMSum; sequences stand for … in CUCUCU…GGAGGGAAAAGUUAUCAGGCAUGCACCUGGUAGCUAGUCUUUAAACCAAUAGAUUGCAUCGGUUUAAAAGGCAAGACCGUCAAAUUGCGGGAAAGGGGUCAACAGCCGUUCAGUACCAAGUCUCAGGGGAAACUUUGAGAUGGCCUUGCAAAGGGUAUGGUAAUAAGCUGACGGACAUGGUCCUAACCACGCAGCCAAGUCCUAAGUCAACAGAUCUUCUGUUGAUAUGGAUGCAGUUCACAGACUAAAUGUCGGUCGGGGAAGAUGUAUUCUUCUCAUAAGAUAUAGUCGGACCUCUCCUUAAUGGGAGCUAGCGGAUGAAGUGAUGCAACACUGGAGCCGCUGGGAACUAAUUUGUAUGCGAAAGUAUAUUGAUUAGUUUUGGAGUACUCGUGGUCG;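 note: selection with 25 µg/mL kanamycin versus none on LB agar overnight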
- Protocol Conditions: 30 °C
Enter the number alone.

Look over these answered cases.
{"Input Sequence": "CAUUAGCAAUAUUACGGGUU", "Quantity": "self-splicing fitness (ln)", "Result Number": -2.27}
{"Input Sequence": "UAUUAGCAAUAUUACGUCCU", "Quantity": "self-splicing fitness (ln)", "Result Number": -1.69}
{"Input Sequence": "UCAAAGCAAUAUUACGAGUC", "Quantity": "self-splicing fitness (ln)", "Result Number": -3.79}

Q: I am curious: what self-splicing fitness (ln) value has been reported for "CCAAAGCAAUAUUACGGGCA" ?
Result: -3.47

Q: I am curious: what self-splicing fitness (ln) value has been reported for "GCGAAGCAAUAUUACGGAAU" ?
Result: -3.17

Q: I am curious: what self-splicing fitness (ln) value has been reported for "UAUGAGCAAUAUUACGUCCA" ?
Result: -2.26
